Where do these numbers come from? They come from the supplement of paper PMC11061612.

System: Calu-6 (Non-Small Cell Lung Carcinoma);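 also: after 72 h of two-drug dosing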
assay-text: Bliss excess, mean over the matrix (fraction); higher = more synergy
parameter: Bliss excess
Numbers only.

Below: 2 compounds and their reported Bliss excess.
compound	Bliss excess
Cc1nc(Nc2ncc(C(=O)Nc3c(C)cccc3Cl)s2)cc(N2CCN(CCO)CC2)n1 [Dasatinib] + CC(=O)Nc1cccc(-n2c(=O)n(C3CC3)c(=O)c3c(Nc4ccc(I)cc4F)n(C)c(=O)c(C)c32)c1 [Trametinib] (first compound max 2 µM, 7x7, partner max 1 µM)	0.179
CC(=O)c1c(C)c2cnc(Nc3ccc(N4CCNCC4)cn3)nc2n(C2CCCC2)c1=O [Palbociclib] + CC1(C)CCC(CN2CCN(c3ccc(C(=O)NS(=O)(=O)c4ccc(NCC5CCOCC5)c([N+](=O)[O-])c4)c(Oc4cnc5[nH]ccc5c4)c3)CC2)=C(c2ccc(Cl)cc2)C1 [Venetoclax] (first compound max 10 µM, 7x7, partner max 1 µM)	0.0322

Continue with the next compound.
For Calu-6 (Non-Small Cell Lung Carcinoma), give the measured Bliss excess of the entry CC(=O)c1c(C)c2cnc(Nc3ccc(N4CCNCC4)cn3)nc2n(C2CCCC2)c1=O [Palbociclib] + CN(CC[C@H](CSC1=CC=CC=C1)NC2=C(C=C(C=C2)S(=O)(=O)NC(=O)C3=CC=C(C=C3)N4CCC(CC4)[C@H](C5=CC=CC=C5C6=CC=C(C=C6)Cl)O)S(=O)(=O)C(F)(F)F)CCO [AZD4320] (first compound max 10 µM, 7x7, partner max 1 µM)
0.0279
